Data origin, for the record: patent US20150352108A1

Target: IKKε (Homo sapiens, UniProt Q14164)
Construct: His-tag; made in house; host or cells: Sf9 insect cells
Sequence (Q14164 1-716): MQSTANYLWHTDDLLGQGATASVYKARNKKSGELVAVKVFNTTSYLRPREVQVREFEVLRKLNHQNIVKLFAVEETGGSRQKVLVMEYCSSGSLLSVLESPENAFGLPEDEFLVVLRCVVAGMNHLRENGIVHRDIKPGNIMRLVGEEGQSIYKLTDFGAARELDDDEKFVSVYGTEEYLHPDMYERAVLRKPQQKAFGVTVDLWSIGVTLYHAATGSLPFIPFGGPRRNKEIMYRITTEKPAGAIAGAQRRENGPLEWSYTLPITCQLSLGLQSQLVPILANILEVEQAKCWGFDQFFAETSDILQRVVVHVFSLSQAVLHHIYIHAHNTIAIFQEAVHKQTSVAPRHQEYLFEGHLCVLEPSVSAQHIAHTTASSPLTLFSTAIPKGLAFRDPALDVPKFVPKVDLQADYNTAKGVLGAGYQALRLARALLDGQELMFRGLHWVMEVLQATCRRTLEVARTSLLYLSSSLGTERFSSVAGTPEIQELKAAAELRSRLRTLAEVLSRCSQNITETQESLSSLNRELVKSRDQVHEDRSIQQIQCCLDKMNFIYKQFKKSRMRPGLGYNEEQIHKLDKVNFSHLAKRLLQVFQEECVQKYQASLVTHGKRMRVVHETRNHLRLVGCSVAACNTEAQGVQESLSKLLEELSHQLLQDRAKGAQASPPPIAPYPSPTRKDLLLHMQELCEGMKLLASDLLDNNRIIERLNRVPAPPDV
Assay: In-vitro IKKε kinase assay ([γ33]ATP filter-plate)
Assay type: biochemical
Settings: Table 3; read-out: IKKε IC50
Protocol: IKKε enzyme was produced as a His-tag fusion in Sf9 cells and used at a final concentration of […]. TBK1 enzyme was produced as a His-tag fusion in Sf9 cells and used at a final concentration of 0.1 μg/ml. […] After air drying, scintillant (PerkinElmer, Waltham, Mass.) was added and the plates were read on a PerkinElmer TopCount NXT instrument. […]
pIC50: −log10 of the molar value.
parameter: pIC50

mol-smiles	assayed-system	pIC50
N#Cc1cc(-c2ccnc(Nc3ccc(N4CCOCC4)cc3)n2)ccc1OC1CCN(S(N)(=O)=O)CC1	IKKε (Homo sapiens, UniProt Q14164)	9.10

P. N#Cc1cc(-c2ccnc(Nc3cccc(CN4CCN(CCO)CC4)c3)n2)ccc1OC1CCOCC1
Q. CC(C)COc1ccc(-c2ccnc(Nc3ccc(N4CCOCC4)cc3)n2)cc1C#N
R. COc1cc(Nc2nccc(-c3ccc(OC4CCOCC4)c(C#N)c3)n2)ccc1S(=O)(=O)N1CCCN(C)CC1
input: Hello, I need these entries ordered by pIC50, highest reading first. Thanks! // respond by listing labels in the order requested
output: R, Q, P
(R: 9.70, Q: 9.22, P: 8.70)
